Hey, just so you know, these numbers are from patent US20240141072A1.

- target.or.test.system: T1, biotinylated human DLL3 protein expressed as a human IgG1 fusion protein (human, UniProt Q9NYJ7 27-492, limits assumed, biotinylated)
- T1 sequence: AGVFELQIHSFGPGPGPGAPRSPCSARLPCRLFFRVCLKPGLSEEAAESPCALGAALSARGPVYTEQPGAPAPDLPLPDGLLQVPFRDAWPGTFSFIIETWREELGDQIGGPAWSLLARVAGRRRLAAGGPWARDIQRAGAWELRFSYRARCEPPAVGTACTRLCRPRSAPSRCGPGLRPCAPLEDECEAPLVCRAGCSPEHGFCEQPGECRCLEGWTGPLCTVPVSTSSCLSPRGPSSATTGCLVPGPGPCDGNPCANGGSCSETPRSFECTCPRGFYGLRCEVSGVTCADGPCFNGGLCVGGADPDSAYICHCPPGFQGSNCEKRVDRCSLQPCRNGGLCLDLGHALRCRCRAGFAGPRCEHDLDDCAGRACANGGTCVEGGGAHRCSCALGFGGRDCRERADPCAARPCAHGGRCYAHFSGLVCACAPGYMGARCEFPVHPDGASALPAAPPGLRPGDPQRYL
- protocol.notes: Octet BLI, single 50 nM
Binary label based on Kd with cut-off 7 nM: below gives true, not below gives false.

Q. Determine if 1C06 anti-DLL3 trispecific protein (other, not shown: linker 1808, anti-albumin sdAb, linker 1808, anti-CD3 fragment, His6 1819) EVQLVESGGGLVQPGGSLTLSCVASGSTSIINAMGWYRRAPGKQRELVAGISSDGSKVYEDSVKGRFTISRDNAKNSVYLQMNSLRAEDTAVYYCYYFRAVSGSSMRYWGQGTLVTVSS shows Kd strictly lower than 7 nM.
A. false

Q. Determine if 1B09 anti-DLL3 trispecific protein (other, not shown: linker 1808, anti-albumin sdAb, linker 1808, anti-CD3 fragment, His6 1819) EVQLVESGGGLVQPGGSLTLSCVASGSTSSINAMAWYRRAPGKQRELVAGISSDGSKVYVDSVKGRFTISRDNAKNSVYLQMNSLRAEDTAVYYCYYFRTVSGSSMRYWGQGTLVTVSS shows Kd strictly lower than 7 nM.
A. true

Q. Determine if 2B02 anti-DLL3 trispecific protein (other, not shown: linker 1808, anti-albumin sdAb, linker 1808, anti-CD3 fragment, His6 1819) EVQLVESGGGLVQPGGSLTLSCVASGSTSSINAMAWYRRAPGKQRELVAGISSDGSKVYADSVKGRFTISRDNAKNSVYLQMNSLRAEDTAVYYCYYFRTKSGSSMRYWGQGTLVTVSS shows Kd strictly lower than 7 nM.
A. true

Q. Determine if 1F02 anti-DLL3 trispecific protein (other, not shown: linker 1808, anti-albumin sdAb, linker 1808, anti-CD3 fragment, His6 1819) EVQLVESGGGLVQPGGSLTLSCVASGSTSSINAMAWYRRAPGKQRELAAGISSDQSKVYADSAKGRFTISRDNAKNSVYLQMNSLRAEDTAVYYCYYFRTVSGSSMSYWGQGTLVTVSS shows Kd strictly lower than 7 nM.
A. true

Q. Determine if 4A011 anti-DLL3 trispecific protein (other, not shown: linker 1808, anti-albumin sdAb, linker 1808, anti-CD3 fragment, His6 1819) EVQLVESGGGLVQPGGSLTLSCAASGSKVSFLSMAWYRQAPGKKRELVAGISADGSTTYIDSVKGRFTISRDNAKNSVYLQMNSLRAEDTAVYYCYAYRWKTRYTYWGQGTLVTVSS shows Kd strictly lower than 7 nM.
A. true

Q. Determine if 1C01 anti-DLL3 trispecific protein (other, not shown: linker 1808, anti-albumin sdAb, linker 1808, anti-CD3 fragment, His6 1819) EVQLVESGGGLVQPGGSLTLSCVASGSTSSINAMGWYRRAPGKQRELVAGISSDGSKVYRDSVKGRFTISRDNAKNSVYLQMNSLRAEDTAVYYCYYFRTVSGSSMGYWGQGTLVTVSS shows Kd strictly lower than 7 nM.
A. true

Q. Determine if 4E09 anti-DLL3 trispecific protein (other, not shown: linker 1808, anti-albumin sdAb, linker 1808, anti-CD3 fragment, His6 1819) EVQLVESGGGLVQPGGSLTLSCAASGSSVSFLSSAWYRQAPGKKRELVAGISADGSTLYIDSVKGRFTISRDNAKNSVYLQMNSLRAEDTAVYYCYAYRWTTRSTYWGQGTLVTVSS shows Kd strictly lower than 7 nM.
A. false
